Origin of the recorded values: patent US8030354B2

EC50 for assorted compounds
# target: UniProt O14842
# assay.summary: Inositol phosphate accumulation assay (A9_GPR40 cells)
# Type: cell-based
# Set-up: expressed in transfected cells; host or cells: CHO cells stably transfected with GPR40 and aequorin
# protocol.conditions: inositol phosphate assay, A9_GPR40 cells, 1 hour; read-out: IP3 EC50

The reported EC50 of the compound CCCC(CC(=O)O)c1cccc(OCc2ccc(-c3cc(OC)ccc3F)c(C3=CCCCCC3)c2)c1 (single isomer, unassigned) was 10 to 100 nM

The reported EC50 of the compound C=C(C)[C@H](CC(=O)O)c1cccc(OCc2ccc(-c3cccc(OC)c3)c(C(C)(C)C)c2)c1 (single isomer, unassigned) was 100 to 1000 nM

The reported EC50 of the compound CCC(CC(=O)O)c1cccc(OCc2ccc(-c3cc(OC)ncc3F)c(C3CCCC3(C)C)c2)c1F (single isomer, unassigned) was < 10 nM

The reported EC50 of the compound CO[C@H](c1cc(COc2cccc([C@@H](CC(=O)O)C3CC3)c2F)ccc1-c1cc(F)ccc1F)C(C)(C)C (single isomer, unassigned) was 10 to 100 nM

The reported EC50 of the compound CCCCOc1cc(COc2cccc(C(CCCC)CC(=O)O)c2)ccc1-c1cc(OC)ccc1F (single isomer, unassigned) was 100 to 1000 nM

The reported EC50 of the compound COc1ccc(F)c(-c2ccc(COc3cccc(C(CC(=O)O)CC4CC4)c3)cc2N2CCCCCC2)c1 (single isomer, unassigned) was 100 to 1000 nM

====

# target: UniProtKB O14842
# assay.summary: Cell-based aequorin assay (CHO cells stably expressing GPR40 and aequorin)
# Set-up: expressed in transfected cells; host or cells: CHO cells stably transfected with GPR40 and aequorin
# protocol.conditions: activation of human GPR40, CHO cells, 0.01% HSA
pEC50: −log10 of the molar value.
measured.quantity: pEC50

Below, each entry is followed by its recorded pEC50 result.
{"compound": "COc1ccc(F)c(-c2ccc(COc3cccc(C(CC(=O)O)CC4CC4)c3)cc2N2CCCCC2)c1 (single isomer, unassigned)", "target": "UniProtKB O14842", "measured.quantity": "pEC50", "experimental.value": "6.00 to 7.00"}
{"compound": "COc1ccc(F)c(-c2ccc(COc3cccc(C(C)CC(=O)O)c3)cc2CCC2CCCCC2)c1 (single isomer, unassigned)", "target": "UniProtKB O14842", "measured.quantity": "pEC50", "experimental.value": "6.00 to 7.00"}
{"compound": "CCCC(CC(=O)O)c1cccc(OCc2ccc(-c3cc(OC)ccc3F)c(CN3CCCC3)c2)c1 (single isomer, unassigned)", "target": "UniProtKB O14842", "measured.quantity": "pEC50", "experimental.value": "5.00 to 6.00"}
{"compound": "CC1(C)CCC[C@@H]1c1cc(COc2cccc([C@@H](CC(=O)O)C3CC3)c2F)ccc1-c1cc(C(F)F)ccc1F (single isomer, unassigned)", "target": "UniProtKB O14842", "measured.quantity": "pEC50", "experimental.value": "6.00 to 7.00"}

The reported pEC50 of the compound COc1cccc(-c2ccc(COc3cccc(C(CC(=O)O)C4CCC4)c3)cc2C2CCCC2(C)C)c1 (single isomer, unassigned) [Example 79.6] was 6.00 to 7.00

The reported pEC50 of the compound CCCCOc1cc(COc2cccc(C(CCC)CC(=O)O)c2)ccc1-c1cccc(OC)c1 (single isomer, unassigned) was 6.00 to 7.00

====

# target: GPR40 (Homo sapiens)
# assay.summary: Cell-based aequorin assay (CHO cells stably expressing GPR40 and aequorin)
# Set-up: expressed in transfected cells; host or cells: CHO cells stably transfected with GPR40 and aequorin
# protocol.conditions: activation of human GPR40, CHO cells, 0.01% HSA
measured.quantity: EC50

Below, each entry is followed by its recorded EC50 result.
{"molecule": "COc1ccc(F)c(-c2ccc(COc3cccc([C@@H](CC(=O)O)C4CC4)c3)cc2CN2CCCC2)c1 (single isomer, unassigned)", "EC50": "1 to 10 µM"}
{"molecule": "COc1ccc(F)c(-c2cc(F)c(COc3cccc(C(CC(=O)O)CC4CC4)c3F)cc2C2CCCC2(C)C)c1 (single isomer, unassigned)", "EC50": "0.1 to 1 µM"}

Switching to the query record.
The reported EC50 of the molecule CC1(c2cccc(-c3ccc(COc4cccc(C(CC(=O)O)C5CC5)c4)cc3C3CCCC3(C)C)c2)OCCO1 (single isomer, unassigned) was 1 to 10 µM

====

# target: GPR40 (Homo sapiens, UniProt O14842)
# Sequence (O14842 whole entry): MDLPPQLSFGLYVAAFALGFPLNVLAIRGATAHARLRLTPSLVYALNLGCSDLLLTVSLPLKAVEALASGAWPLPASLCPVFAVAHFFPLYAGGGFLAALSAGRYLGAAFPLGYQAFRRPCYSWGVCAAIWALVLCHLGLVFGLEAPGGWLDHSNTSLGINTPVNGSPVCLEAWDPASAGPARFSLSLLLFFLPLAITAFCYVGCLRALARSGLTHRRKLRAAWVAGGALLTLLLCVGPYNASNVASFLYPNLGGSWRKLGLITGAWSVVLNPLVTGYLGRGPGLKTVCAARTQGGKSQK
# assay.summary: Inositol phosphate accumulation assay (A9_GPR40 cells)
# Format: cell-based
# Design: expressed in transfected cells; host or cells: CHO cells stably transfected with GPR40 and aequorin
# protocol.conditions: inositol phosphate assay, A9_GPR40 cells, 1 hour; read-out: IP3 EC50
EC50 for assorted molecules

Below, each entry is followed by its recorded EC50 result.
{"molecule": "CC[C@H](CC(=O)O)c1ccc(C)c(OCc2ccc(-c3cc(OC)ccc3F)c(C(C)(C)C)c2)c1 (single isomer, unassigned)", "experimental.value": "100 to 1000 nM"}
{"molecule": "COc1cc(-c2cc(F)c(COc3cccc(C(C)(C)CC(=O)O)c3)cc2C2CCCC2(C)C)c(F)cn1 (single isomer, unassigned)", "experimental.value": "10 to 100 nM"}

Switching to the query record.
The reported EC50 of the molecule COc1ccc(F)c(-c2ccc(COc3cccc(C(CC(=O)O)C4CC4)c3)cc2C2CCCC2(C)C)c1 (single isomer, unassigned) was < 10 nM

====

pEC50 for assorted compounds
# target: GPR40 (Homo sapiens)
# assay.summary: Cell-based aequorin assay (CHO cells stably expressing GPR40 and aequorin)
# Set-up: expressed in transfected cells; host or cells: CHO cells stably transfected with GPR40 and aequorin
# protocol.conditions: activation of human GPR40, CHO cells, 0.01% HSA
pEC50: −log10 of the molar value.

{"compound": "CCCCC(CC(=O)O)c1cccc(OCc2ccc(-c3cc(OC)ccc3F)c(C(C)(C)C)c2)c1 (single isomer, unassigned)", "pEC50": "6.00 to 7.00"}
{"compound": "CCCCC(CC(=O)O)c1cccc(OCc2ccc(-c3cc(OC)ccc3F)c(C3=CCCC3(C)C)c2)c1 (single isomer, unassigned)", "pEC50": "6.00 to 7.00"}

The reported pEC50 of the compound COc1ccc(F)c(-c2ccc(COc3cccc([C@@H](CC(=O)O)C4CC4)c3)cc2[C@@H]2CCCCC2(C)C)c1 (single isomer, unassigned) [Example 66.22] was 7.00 to 8.00

====

# target: GPR40 (Homo sapiens)
# assay.summary: Inositol phosphate accumulation assay (A9_GPR40 cells)
# Type: cell-based
# Design: expressed in transfected cells; host or cells: CHO cells stably transfected with GPR40 and aequorin
# protocol.conditions: inositol phosphate assay, A9_GPR40 cells, 1 hour; read-out: IP3 EC50
pEC50: −log10 of the molar value.
pEC50 for assorted molecules

{"molecule": "COc1ccc(F)c(-c2ccc(COc3cccc(C(C)(C)CC(=O)O)c3)cc2C2=CCCC2(C)C)c1 [Example 85.2]", "experimental.value": "7.00 to 8.00"}
{"molecule": "COc1ccc(F)c(-c2ccc(COc3cccc([C@@H](CC(=O)O)C4CC4)c3)cc2[C@@H](OC)C(C)(C)C)c1 (single isomer, unassigned) [Example 66.13]", "experimental.value": "> 8.00"}
{"molecule": "CCC(CC(=O)O)c1cccc(OCc2ccc(-c3cc(OC)ncc3F)c(C(OC)C(C)(C)C)c2)c1F (single isomer, unassigned) [Example 77.10]", "experimental.value": "> 8.00"}
{"molecule": "COc1ccc(F)c(-c2ccc(COc3cccc(C(CC(=O)O)C4CC4)c3F)cc2C2CCCC2(C)C)c1 (single isomer, unassigned) [Example 99.2]", "experimental.value": "7.00 to 8.00"}
{"molecule": "COc1ccc(F)c(-c2ccc(COc3cccc(C(C)CC(=O)O)c3)cc2CCC2CCCCC2)c1 (single isomer, unassigned) [Example 64.15]", "experimental.value": "7.00 to 8.00"}

The reported pEC50 of the molecule COc1cc(-c2ccc(COc3cccc(C(CC(=O)O)C4CC4)c3)cc2C2CCCC2(C)C)c(F)cn1 (single isomer, unassigned) [Example 66.36] was > 8.00

The reported pEC50 of the molecule COc1ccc(F)c(-c2ccc(COc3cccc(C(C)CC(=O)O)c3)cc2C2=CCCC2)c1 (single isomer, unassigned) [Example 64.19] was 6.00 to 7.00

The reported pEC50 of the molecule CCOc1ccc(F)c(-c2ccc(COc3cccc([C@@H](CC(=O)O)C4CC4)c3)cc2[C@@H]2CCCC2(C)C)c1 (single isomer, unassigned) [Example 66.25] was 5.00 to 6.00

The reported pEC50 of the molecule COc1ccc(F)c(-c2ccc(COc3cccc(C(C)CC(=O)O)c3)cc2C(C)(C)C)c1 (single isomer, unassigned) [Example 42] was 5.00 to 6.00

The reported pEC50 of the molecule CCCCOc1cc(COc2cccc([C@@H](CC(=O)O)C(F)(F)F)c2)ccc1-c1cc(OC)ccc1F (single isomer, unassigned) [Example 7] was 5.00 to 6.00

The reported pEC50 of the molecule COc1ccc(F)c(-c2ccc(COc3cccc(C(CC(=O)O)CC4CC4)c3F)cc2C(F)C(C)(C)C)c1 (single isomer, unassigned) [Example 84.7] was > 8.00

The reported pEC50 of the molecule COc1ccc(F)c(-c2ccc(COc3cccc([C@@H](CC(=O)O)C4CC4)c3)cc2C2=CCCC2)c1 (single isomer, unassigned) [Example 66.68] was 7.00 to 8.00
